Target: flag-tagged HIF1α (AA 786-826) / His6-tagged p300 (AA 323-423) complex (Homo sapiens)
Construct: His6-tagged p300 (AA 323-423); made in house; host or cells: E. coli (pETDuet vector)
Assay: HIF1α p300 displacement assay (TR FRET, +CHAPS)
Format: binding
Details: read-out: IC50 (nM) (HIF1α_p300 Displacement + CHAPS)
Bridge positions count the residues as written; N and C are the ends. Square brackets hold non-standard residues; d marks the D form. Peptide text beside a SMILES is read from it. S5 = C=CCCC[C@](C)(N)C(=O)O; Nle = CCCC[C@H](N)C(=O)O
# IC50 values compiled below

Some solved entries appear below for comparison.
- COMPOUND: "CCCC[C@H](NC(=O)[C@H](CCC(=O)O)NC(=O)[C@@H](NC(=O)[C@@H](NC(=O)[C@H](CC(C)C)NC(=O)[C@]1(C)CCCC=CCCC[C@](C)(NC(=O)[C@H](CCC(=O)O)NC(=O)[C@H](CC(=O)O)NC(=O)[C@@H](NC(=O)[C@H](Cc2ccccc2)NC(C)=O)[C@@H](C)O)C(=O)N[C@@H](C(C)C)C(=O)N[C@@H](CC(C)C)C(=O)N[C@@H](CCCC)C(=O)N1)C(C)C)[C@@H](C)CC)C(=O)N[C@@H](C)C(=O)N[C@@H](CC(C)C)C(N)=O [SP-153] (Ac-FTDE[S5]VL[Nle][S5]LVIE[Nle]AL-NH2; staple 5-9)"
  IC50: "400 to 700 nM"
- COMPOUND: "CCCC[C@H](NC(=O)[C@H](CCC(=O)O)NC(=O)[C@@H](NC(=O)[C@@H](NC(=O)[C@H](CC(C)C)NC(=O)[C@]1(C)CCCC=CCCC[C@](C)(NC(=O)[C@H](CCC(=O)O)NC(=O)[C@H](CC(=O)O)NC(=O)[C@@H](NC(=O)[C@H](Cc2ccccc2)NC(C)=O)[C@@H](C)CC)C(=O)N[C@@H]([C@@H](C)O)C(=O)N[C@@H](CC(C)C)C(=O)N[C@@H](CCCC)C(=O)N1)C(C)C)[C@@H](C)CC)C(=O)N[C@@H](C)C(=O)N[C@@H](CC(C)C)C(N)=O [SP-139] (Ac-FIDE[S5]TL[Nle][S5]LVIE[Nle]AL-NH2; staple 5-9)"
  IC50: "400 to 700 nM"

Which IC50 value is on record for CCCC[C@H](NC(=O)[C@H](CCC(=O)O)NC(=O)[C@@H](NC(=O)[C@@H](NC(=O)[C@H](CC(N)=O)NC(=O)[C@]1(C)CCCC=CCCC[C@](C)(NC(=O)[C@H](C)NC(=O)[C@H](CC(=O)O)NC(=O)[C@@H](NC(=O)[C@H](Cc2ccccc2)NC(C)=O)[C@@H](C)CC)C(=O)N[C@@H](C(C)C)C(=O)N[C@@H](CC(C)C)C(=O)N[C@@H](CCCC)C(=O)N1)C(C)C)[C@@H](C)CC)C(=O)N[C@@H](C)C(=O)N[C@@H](CC(C)C)C(N)=O [SP-150] (Ac-FIDA[S5]VL[Nle][S5]NVIE[Nle]AL-NH2; staple 5-9) ?
200 to 400 nM

Which IC50 value is on record for CC[C@H](C)[C@H](NC(=O)[C@H](Cc1ccccc1)NC(C)=O)C(=O)N[C@@H](CC(=O)O)C(=O)N[C@@H](CCC(=O)O)C(=O)N[C@@]1(C)CCCC=CCCC[C@@](C)(C(=O)N[C@@H](CC(C)C)C(=O)N[C@H](C(=O)N[C@H](C(=O)N[C@@H](CCC(=O)O)C(=O)N[C@@H](CCSC)C(=O)N[C@@H](C)C(=O)N[C@@H](C)C(N)=O)[C@@H](C)CC)C(C)C)NC(=O)[C@H](CCSC)NC(=O)[C@H](CC(C)C)NC(=O)[C@H](C(C)C)NC1=O [SP-116] (Ac-FIDE[S5]VLM[S5]LVIEMAA-NH2; staple 5-9) ?
> 700 nM

----------
Target: flag-tagged HIF1α (AA 786-826) / His6-tagged p300 (AA 323-423) complex (Homo sapiens)
Construct: His6-tagged p300 (AA 323-423); made in house; host or cells: E. coli (pETDuet vector)
Experiment: HIF1α p300 displacement assay (TR FRET, +CHAPS)
Format: binding
Conditions: read-out: IC50 (nM) (HIF1α_p300 Displacement + CHAPS)
Bridge positions count the residues as written; N and C are the ends. Square brackets hold non-standard residues; d marks the D form. Peptide text beside a SMILES is read from it. R8 = C=CCCCCCC[C@@](C)(N)C(=O)O; S5 = C=CCCC[C@](C)(N)C(=O)O; Nle = CCCC[C@H](N)C(=O)O
VALUE TYPE: IC50

- COMPOUND: "CCCC[C@H](NC(=O)[C@H](CCC(=O)O)NC(=O)[C@@H](NC(=O)[C@@H](NC(=O)[C@H](CC(C)C)NC(=O)[C@]1(C)CCCC=CCCC[C@](C)(NC(=O)[C@H](CCC(=O)O)NC(=O)[C@H](CC(=O)O)NC(=O)[C@@H](NC(=O)[C@H](Cc2ccccc2)NC(C)=O)[C@@H](C)CC)C(=O)N[C@@H](CC(N)=O)C(=O)N[C@@H](CC(C)C)C(=O)N[C@@H](CCCC)C(=O)N1)C(C)C)[C@@H](C)CC)C(=O)N[C@@H](C)C(=O)N[C@@H](CC(C)C)C(N)=O [SP-141] (Ac-FIDE[S5]NL[Nle][S5]LVIE[Nle]AL-NH2; staple 5-9)"
  IC50: "400 to 700 nM"
- COMPOUND: "CC[C@H](C)[C@H](NC(=O)[C@H](Cc1ccccc1)NC(C)=O)C(=O)N[C@@H](CC(=O)O)C(=O)N[C@@H](CCC(=O)O)C(=O)N[C@]1(C)CCCCCCC=CCCC[C@@](C)(C(=O)N[C@@H](CCC(=O)O)C(=O)N[C@@H](CCSC)C(=O)NCC(=O)N[C@@H](CC(C)C)C(=O)N[C@@H](CC(=O)O)C(N)=O)NC(=O)[C@H](C(C)C)NC(=O)[C@H](CC(C)C)NC(=O)[C@H](CO)NC(=O)[C@H](CCSC)NC(=O)[C@H](CC(C)C)NC(=O)[C@H](C(C)C)NC1=O [SP-188] (Ac-FIDE[R8]VLMSLV[S5]EMGLD-NH2; staple 5-12)"
  IC50: "> 700 nM"
- COMPOUND: "CCCC[C@H](NC(=O)[C@]1(C)CCCC=CCCC[C@](C)(NC(=O)[C@H](CCSC)NC(=O)[C@H](CC(C)C)NC(=O)[C@@H](NC(=O)[C@H](CCC(=O)O)NC(=O)[C@H](CCC(=O)O)NC(=O)[C@H](CC(=O)O)NC(=O)[C@@H](NC(=O)[C@H](Cc2ccccc2)NC(C)=O)[C@@H](C)CC)C(C)C)C(=O)N[C@@H](CC(C)C)C(=O)N[C@@H](C(C)C)C(=O)N[C@@H]([C@@H](C)CC)C(=O)N1)C(=O)N[C@@H](C)C(=O)N[C@@H](CC(C)C)C(N)=O [SP-225] (Ac-FIDEEVLM[S5]LVI[S5][Nle]AL-NH2; staple 9-13)"
  IC50: "> 700 nM"

Which IC50 value is on record for CCCC[C@H](NC(=O)[C@H](CCC(=O)O)NC(=O)[C@]1(C)CCCC=CCCCCCC[C@@](C)(NC(=O)[C@H](CCC(=O)O)NC(=O)[C@H](CC(=O)O)NC(=O)[C@@H](NC(=O)[C@H](Cc2ccccc2)NC(C)=O)[C@@H](C)CC)C(=O)N[C@@H](C(C)C)C(=O)N[C@@H](CC(C)C)C(=O)N[C@@H](CCCC)C(=O)N[C@@H](CO)C(=O)N[C@@H](CC(C)C)C(=O)N[C@@H](C(C)C)C(=O)N1)C(=O)N[C@@H](C)C(=O)N[C@@H](CC(C)C)C(N)=O [SP-195] (Ac-FIDE[R8]VL[Nle]SLV[S5]E[Nle]AL-NH2; staple 5-12) ?
400 to 700 nM

----------
# IC50 values compiled below
Molecular target: flag-tagged HIF1α (AA 786-826) / His6-tagged p300 (AA 323-423) complex (Homo sapiens, UniProt Q09472)
Construct: His6-tagged p300 (AA 323-423); made in house; host or cells: E. coli (pETDuet vector)
Assay: HIF1α p300 displacement assay (TR FRET, +CHAPS)
Assay type: binding
Conditions: read-out: IC50 (nM) (HIF1α_p300 Displacement + CHAPS)
Description: The ability of peptides to displace HIF1α c-terminal trans-activation domain from p300-CH was measured by a TR FRET assay. […] The reaction was read on a TECAN F500 plate reader with settings recommended by CisBio. The ratio of donor to acceptor fluorescence was calculated. The resulting data was analyzed with Graphpad Prism 5.0. […]
Bridge positions count the residues as written; N and C are the ends. Square brackets hold non-standard residues; d marks the D form. Peptide text beside a SMILES is read from it. R8 = C=CCCCCCC[C@@](C)(N)C(=O)O; S5 = C=CCCC[C@](C)(N)C(=O)O; Nle = CCCC[C@H](N)C(=O)O

Some solved entries appear below for comparison.
- MOLECULE: "CCCC[C@@H]1NC(=O)[C@H](CC(C)C)NC(=O)[C@H](C(C)C)NC(=O)[C@@](C)(NC(=O)[C@H](CCC(=O)O)NC(=O)[C@H](CC(=O)O)NC(=O)[C@@H](NC(=O)[C@H](Cc2ccccc2)NC(C)=O)[C@@H](C)CC)CCCC=CCCC[C@@](C)(C(=O)N[C@@H](CC(C)C)C(=O)N[C@H](C(=O)N[C@H](C(=O)N[C@@H](CCC(=O)O)C(=O)N[C@@H](CCC(N)=O)C(=O)N[C@@H](C)C(=O)N[C@@H](CC(C)C)C(N)=O)[C@@H](C)CC)C(C)C)NC1=O [SP-146] (Ac-FIDE[S5]VL[Nle][S5]LVIEQAL-NH2; staple 5-9)"
  IC50: "> 700 nM"
- MOLECULE: "CCCC[C@H](NC(=O)[C@H](CCC(=O)O)NC(=O)[C@@H](NC(=O)[C@@H](NC(=O)[C@H](CC(C)C)NC(=O)[C@]1(C)CCCC=CCCC[C@](C)(NC(=O)[C@H](CCC(=O)O)NC(=O)[C@H](CC(=O)O)NC(=O)[C@@H](NC(=O)[C@H](Cc2ccccc2)NC(C)=O)[C@@H](C)CC)C(=O)N[C@@H](C)C(=O)N[C@@H](CC(C)C)C(=O)N[C@@H](CCCC)C(=O)N1)C(C)C)[C@@H](C)CC)C(=O)N[C@@H](C)C(=O)N[C@@H](CC(C)C)C(N)=O [SP-138] (Ac-FIDE[S5]AL[Nle][S5]LVIE[Nle]AL-NH2; staple 5-9)"
  IC50: "200 to 400 nM"
- MOLECULE: "CCCC[C@@H]1NC(=O)[C@H](CC(C)C)NC(=O)[C@H](C(C)C)NC(=O)[C@@](C)(NC(=O)[C@H](CCC(=O)O)NC(=O)[C@H](CC(=O)O)NC(=O)[C@@H](NC(=O)[C@H](Cc2ccccc2)NC(C)=O)[C@@H](C)CC)CCCC=CCCCC2(CCCC=CCCC[C@](C)(C(=O)N[C@@H](CCC(N)=O)C(=O)N[C@@H](C)C(=O)N[C@@H](CC(C)C)C(N)=O)NC(=O)[C@H]([C@@H](C)CC)NC(=O)[C@H](C(C)C)NC(=O)[C@H](CC(C)C)NC2=O)NC1=O (stereo partly shown)"
  IC50: "200 to 400 nM"

Switching to the query record.
Which IC50 value is on record for CCCC[C@H](NC(=O)[C@H](CCC(=O)O)NC(=O)[C@]1(C)CCCC=CCCCCCC[C@@](C)(NC(=O)[C@H](CCC(=O)O)NC(=O)[C@H](CC(=O)O)NC(=O)[C@@H](NC(=O)[C@H](Cc2ccccc2)NC(C)=O)[C@@H](C)CC)C(=O)N[C@@H](C(C)C)C(=O)N[C@@H](CC(C)C)C(=O)N[C@@H](CCSC)C(=O)N[C@@H](CO)C(=O)N[C@@H](CC(C)C)C(=O)N[C@@H](C(C)C)C(=O)N1)C(=O)NCC(N)=O [SP-186] (Ac-FIDE[R8]VLMSLV[S5]E[Nle]G-NH2; staple 5-12) ?
> 700 nM

Data credit: patent US20190225650A1
